- experimental-details: Cmax in healthy human at 2 mg administered as single dose suspension
- Type: ADME, organism-based
- Design: dose 2 mg
- condition-details: in vivo
quantity-kind: Cmax (ng/mL)
Numeric only. Scale: ng/mL

The molecule identified as C[C@@H]1CCO[C@H]2Cn3cc(C(=O)NCc4ccc(F)cc4F)c(=O)c([O-])c3C(=O)N12.[Na+] [DOLUTEGRAVIR SODIUM] registered its Cmax at 231

====

- experimental-details: Tmax in healthy human at 50 mg administered as single dose suspension
- Format: ADME, organism-based
- condition-details: in vivo
quantity-kind: Tmax

Reported Tmax ( C[C@@H]1CCO[C@H]2Cn3cc(C(=O)NCc4ccc(F)cc4F)c(=O)c([O-])c3C(=O)N12.[Na+] [DOLUTEGRAVIR SODIUM] ) = 1.25 h

Origin of the recorded values: ChEMBL document CHEMBL1212763
